biological target: Cathepsin B1 (EC 3.4.22.1 from bovine spleen) (Bos taurus, UniProt P07688); conditions: Cathepsin B, 4 h
Square brackets hold non-standard residues; d marks the D form. Peptide text beside a SMILES is read from it. * marks the point of attachment. Gly(1-amidinopiperidin-4-yl) = N=C(N)N1CCC([C@H](N)C(=O)O)CC1; Tic = O=C(O)[C@@H]1Cc2ccccc2CN1; Cha = N[C@@H](CC1CCCCC1)C(=O)O; NMe(benzyl) = CN(Cc1ccccc1)*; Nle = CCCC[C@H](N)C(=O)O; X3 = OCCOCCN*
Met if Stability (Arbitrary units) Cath B 4 h is below 100 Arbitrary units. Not met if not; exact matches included in Not met.

# compound, assigned-category
rows = [
    ("CSCC[C@H](NC(=O)[C@@H]1Cc2ccccc2CN1C(=O)[C@H](CCCNC(=N)N)NC(=O)[C@H](CC1CCCCC1)NC(C)=O)C(N)=O [Compound P1, Ac-Cha-Arg-Tic-Met-NH2] (Ac-[Cha]R[Tic]M-NH2)", "Met"),
    ("CCCC[C@H](NC(=O)[C@@H]1Cc2ccccc2CN1C(=O)[C@@H](NC(=O)[C@H](CC1CCCCC1)NC(C)=O)C1CCN(C(=N)N)CC1)C(=O)N(C)Cc1ccccc1 [Compound P74, Ac-Cha-Gpg-Tic-Nle-N(Me)Bn] (Ac-[Cha][Gly(1-amidinopiperidin-4-yl)][Tic][Nle]-{NMe(benzyl)})", "Not met"),
    ("CSCC[C@H](NC(=O)[C@@H]1Cc2ccccc2CN1C(=O)[C@@H](NC(=O)[C@H](CC1CCCCC1)NC(C)=O)C1CCN(C(=N)N)CC1)C(N)=O [Compound P67, Ac-Cha-Gpg-Tic-Met-NH2] (Ac-[Cha][Gly(1-amidinopiperidin-4-yl)][Tic]M-NH2)", "Met"),
    ("CCCC[C@H](NC(=O)[C@@H]1Cc2ccccc2CN1C(=O)[C@@H](NC(=O)[C@H](CC1CCCCC1)NC(C)=O)C1CCN(C(=N)N)CC1)C(=O)NCCOCCO [Compound P70, Ac-Cha-Gpg-Tic-Nle-N(H)CH2CH2OCH2CH2OH] (Ac-[Cha][Gly(1-amidinopiperidin-4-yl)][Tic][Nle]-X3)", "Not met"),
]
